Here the recorded self-cleavage is given for each entry.
B1: CPEB3 Ribozyme (parent)
chain: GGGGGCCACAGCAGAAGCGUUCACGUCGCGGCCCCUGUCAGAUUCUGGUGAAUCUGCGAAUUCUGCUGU

Variants of: B1
Method description: self-cleavage, relative activity (ratio to wild type); higher = more cleavage; co-transcriptional
Readout kind: self-cleavage

- G4C A16C: 0.0339
- C34G G56C: 0.261
- A40C G58A: 0.659
- A13C C39A: 0.372
- A23C C27G: 0.228
- C22G G37C: 0.956
- C66G G68C: 0.735
- C7A G48C: 0.681
- A23G G31A: 0.781
- C12U C63A: 0.56
- C7G C24A: 0.0945
- U38C: 0.961
- C9U A16U: 0.864
- C12U U44G: 0.866
- G17U C66U: 0.412
- G4U C24U: 0.193
- U53A A60C: 0.324
- C6A A13C: 0.262
- A10U A13G: 0.56
- A40G G47C: 1
- C12U C35A: 0.275
- C24U U67A: 0.862
- G25U G47U: 0.148
- U55A G58A: 0.927
- C9G C24G: 0.608
- A40U G50U: 0.749
- C32G U36C: 0.215
- U26G C27A: 0.458
- U26G G30A: 0.509
- U26G U64G: 0.784
- U43G U61A: 0.701
- G28A U36A: 0.154
- G2A G65A: 0.163
- A16U A59C: 0.427
- U21C C66A: 0.611
- A42U G68C: 0.964
- A51G C66U: 0.972
- G5U C34U: 0.111
- C32A C45U: 0.753
- U38A U44C: 0.802
- A23C U38A: 0.75
- A60G U64C: 0.491
- G3C A42G: 0.106
- G31A C35U: 0.522
- C6G C57G: 0.0373
- A42U U43G: 0.735

Origin of values: the RNAGym collection of RNA variant scans (doi:10.7554/elife.80360)
